# system_name: human SOS1 (loading of human K-Ras^G12C-GDP with fluorescent GTP-analog) (Homo sapiens, UniProt Q07889)
# measurement_description: Biochemical assay 3: K-Ras^G12C activation assay by hSOS1 (HTRF)
# run_conditions: no GTP; read-out: Assay 3 (KRAS-Activation by SOS no GTP) activity expressed as IC50
pIC50: −log10 of the molar value.
Label 1.0 when pIC50 is at or above 6; anything below gets 0.0.

Before answering, review these 3 worked examples.
{"columns": ["compound", "group_label"],
 "data": [
  ["COc1cc2nc(C)nc(N[C@H](C)c3cccc(-c4cccc(/C=C/C#N)c4)c3)c2cc1OC", 0.0],
  ["CNCc1ccccc1-c1cc(C(C)Nc2nc(C)nc3cc(OC)c(OC)cc23)cs1 (stereo not drawn)", 1.0],
  ["COc1cc2nc(C)nc(NC(C)c3csc(Br)c3)c2cc1OC (stereo not drawn)", 0.0]
]}

Request: Confirm if pIC50 reported for the compound COc1cc2nc(C)nc(NC(C)c3ccc(-c4ccc(F)cc4CNC(=O)[C@H]4CCCN4)s3)c2cc1OC (stereo in doubt) is 6 or above.
Response: 1.0

Request: Confirm if pIC50 reported for the compound COc1cc2nc(C)nc(NC(C)c3ccnc4sccc34)c2cc1OC (stereo not drawn) is 6 or above.
Response: 0.0

Request: Confirm if pIC50 reported for the compound COc1cc2nc(C)nc(NC(C)c3cccc4ccoc34)c2cc1OC (stereo not drawn) is 6 or above.
Response: 1.0

Request: Confirm if pIC50 reported for the compound COc1cc2nc(C)nc(N[C@H](C)c3cccc(-c4cn[nH]c4)c3)c2cc1OCC1CC1 is 6 or above.
Response: 1.0

Request: Confirm if pIC50 reported for the compound COc1cc2nc(C)nc(NC(C)c3csc(-c4ccc(F)cc4CN)c3)c2cc1OC (stereo not drawn) is 6 or above.
Response: 1.0
